B1: TPR 5TU (parent)
chain: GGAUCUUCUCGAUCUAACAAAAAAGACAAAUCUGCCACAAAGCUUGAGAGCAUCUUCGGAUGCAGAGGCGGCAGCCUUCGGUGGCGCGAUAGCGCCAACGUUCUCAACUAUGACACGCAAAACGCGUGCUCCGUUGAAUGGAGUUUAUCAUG

Variants of: B1
Assay Remarks: polymerase ribozyme fitness, log enrichment relative to wild type (log ratio); higher = more active; in vitro selection for triplet polymerase activity
This sample holds only a part of the variants without activity.

Variant Key: G48C A91G C105U A147G
polymerase ribozyme fitness (log ratio): ≤ -4.2

Variant Key: A19U A22G A39C C79G
polymerase ribozyme fitness (log ratio): ≤ -4.2

Variant Key: U9A A24U A37C G42C G50C G58A C85G A91C U148A
polymerase ribozyme fitness (log ratio): ≤ -4.2

Variant Key: A37G G84A U101G A120G
polymerase ribozyme fitness (log ratio): -2.6

Variant Key: G59C C85G C95U C116A
polymerase ribozyme fitness (log ratio): -2.38

Variant Key: A16U G25C A52C C96U
polymerase ribozyme fitness (log ratio): -4.11

Variant Key: A30C U33A G68U A73U C95A C114A A121G
polymerase ribozyme fitness (log ratio): ≤ -4.2

Variant Key: A37C C85U G88C A137U
polymerase ribozyme fitness (log ratio): ≤ -4.2

Variant Key: A30C G59C A60C C93A C99U C114A
polymerase ribozyme fitness (log ratio): ≤ -4.2

Variant Key: U31A U44A G68A G81A U104G C125A
polymerase ribozyme fitness (log ratio): ≤ -4.2

Variant Key: C10U A21G A22G A40G C79A C85G A138U
polymerase ribozyme fitness (log ratio): ≤ -4.2

Variant Key: U56A G58A C72U C87U U109G G136A U144C
polymerase ribozyme fitness (log ratio): -4.13

Variant Key: G86A U90A
polymerase ribozyme fitness (log ratio): -3.67

Variant Key: C96G
polymerase ribozyme fitness (log ratio): -0.496

Variant Key: U13C G83C C96U C114U
polymerase ribozyme fitness (log ratio): -4.13

Variant Key: G34U C95G A115G C116U G140C U151A
polymerase ribozyme fitness (log ratio): -4.19

Variant Key: G48A G59A G86A U104G A110U
polymerase ribozyme fitness (log ratio): ≤ -4.2

Variant Key: U33C C36A U55A G83A A89G A142U U148C
polymerase ribozyme fitness (log ratio): ≤ -4.2

Variant Key: G124U G143U U148G
polymerase ribozyme fitness (log ratio): ≤ -4.2

Variant Key: G50A G86A C132U G143C C149G
polymerase ribozyme fitness (log ratio): ≤ -4.2

Variant Key: C54G C75U C95U A147C
polymerase ribozyme fitness (log ratio): -3.31

Variant Key: C14U G81A
polymerase ribozyme fitness (log ratio): -1.14

Variant Key: A3G C63U A73G G86U U135A
polymerase ribozyme fitness (log ratio): -3.75

Variant Key: G94A U139C
polymerase ribozyme fitness (log ratio): -3.82

Variant Key: A52C G143C
polymerase ribozyme fitness (log ratio): -3.51

Variant Key: G59U C76U C105A A113U C116U
polymerase ribozyme fitness (log ratio): ≤ -4.2

Variant Key: U44A A47C
polymerase ribozyme fitness (log ratio): ≤ -4.2

Variant Key: U6C C87U
polymerase ribozyme fitness (log ratio): -1.52

Variant Key: A23U G86U A89G C105G C129U
polymerase ribozyme fitness (log ratio): ≤ -4.2

Variant Key: A26C A41G C54U C75G G88A A107G
polymerase ribozyme fitness (log ratio): ≤ -4.2

Variant Key: A21G A41U C85A C116U
polymerase ribozyme fitness (log ratio): -1.58

Variant Key: U55A A115U G133U
polymerase ribozyme fitness (log ratio): ≤ -4.2

Variant Key: A21U G88A
polymerase ribozyme fitness (log ratio): -3.62

Variant Key: G59C A147C
polymerase ribozyme fitness (log ratio): -0.516

Variant Key: G50C G94A C116U
polymerase ribozyme fitness (log ratio): -3.3

Variant Key: U6A U9G C35G A60G C69G G88C C96A
polymerase ribozyme fitness (log ratio): ≤ -4.2

Variant Key: A23C G58A C87U A91U
polymerase ribozyme fitness (log ratio): ≤ -4.2

Variant Key: U15G C96A
polymerase ribozyme fitness (log ratio): -0.302

Variant Key: U31G C95A
polymerase ribozyme fitness (log ratio): 0.165

Variant Key: A19U U33C C69U G126U
polymerase ribozyme fitness (log ratio): -0.898

Variant Key: C75U A91G U104A U139A
polymerase ribozyme fitness (log ratio): ≤ -4.2

Variant Key: C96A C116G G136C
polymerase ribozyme fitness (log ratio): -3.22

Variant Key: A138U G141C
polymerase ribozyme fitness (log ratio): -3.88

Variant Key: C8A U56A A66C G94A A98U
polymerase ribozyme fitness (log ratio): ≤ -4.2

Variant Key: C14A G62C C76A C87A G117U A137C U146G
polymerase ribozyme fitness (log ratio): ≤ -4.2

Variant Key: A12G C14U G92U U111C A138U
polymerase ribozyme fitness (log ratio): ≤ -4.2

Measured values drawn from the RNAGym collection of RNA variant scans (doi:10.1073/pnas.2313332121) for this set.
